Data origin, for the record: PubChem BioAssay (EPA / NIEHS)

assayed_system: human CYP2C9, CYP2C9 (gene 1559)
experiment_summary: NVS_ADME_hCYP2C9: NovaScreen (NVS) CYP450-related Enzyme Activity (ADME) Assay for human CYP2C9 (AID 2283108)
Results filed as inconclusive are left out. Calls of active or inactive are those of the source. Rule for the calls: active = hit-call score of the fitted dose curve at least 0.9, where 1 is the maximum; inconclusive = response in the unintended direction; inactive = score below 0.9.
Please respond with reported AC50 for every item in the list.

Lab book: AC50 of CC(C)(C)c1cc(O)ccc1O noted as 5930 nM (active)

AC50 measured on Fc1ccc(C2(Cn3cncn3)OC2c2ccccc2Cl)cc1 (stereo unspecified) = 6500 nM (active)

Summary for this compound, CCOP(=S)(OCC)Oc1ccc(S(C)=O)cc1 (stereo unspecified) : AC50 is 3310 nM (active)

AC50 reported for this compound CC1(C)CCC(Cc2ccc(Cl)cc2)C1(O)Cn1cncn1 (stereo unspecified) : 419 nM (active)

Measured AC50 of O=C(O)C(F)(F)C(F)(F)C(F)(F)C(F)(F)C(F)(F)C(F)(F)C(F)(F)C(F)(F)C(F)(F)C(F)(F)F : 1580 nM (active)

The compound identified as Nc1ccc(-c2ccc(N)c(Cl)c2)cc1Cl registered its AC50 at 1240 nM (active)

====

assayed_system: human Ephrin type-A Receptor 1 (EphA1), EPHA1 (gene 2041) (UniProt P21709)
Sequence (P21709 whole entry, looked up): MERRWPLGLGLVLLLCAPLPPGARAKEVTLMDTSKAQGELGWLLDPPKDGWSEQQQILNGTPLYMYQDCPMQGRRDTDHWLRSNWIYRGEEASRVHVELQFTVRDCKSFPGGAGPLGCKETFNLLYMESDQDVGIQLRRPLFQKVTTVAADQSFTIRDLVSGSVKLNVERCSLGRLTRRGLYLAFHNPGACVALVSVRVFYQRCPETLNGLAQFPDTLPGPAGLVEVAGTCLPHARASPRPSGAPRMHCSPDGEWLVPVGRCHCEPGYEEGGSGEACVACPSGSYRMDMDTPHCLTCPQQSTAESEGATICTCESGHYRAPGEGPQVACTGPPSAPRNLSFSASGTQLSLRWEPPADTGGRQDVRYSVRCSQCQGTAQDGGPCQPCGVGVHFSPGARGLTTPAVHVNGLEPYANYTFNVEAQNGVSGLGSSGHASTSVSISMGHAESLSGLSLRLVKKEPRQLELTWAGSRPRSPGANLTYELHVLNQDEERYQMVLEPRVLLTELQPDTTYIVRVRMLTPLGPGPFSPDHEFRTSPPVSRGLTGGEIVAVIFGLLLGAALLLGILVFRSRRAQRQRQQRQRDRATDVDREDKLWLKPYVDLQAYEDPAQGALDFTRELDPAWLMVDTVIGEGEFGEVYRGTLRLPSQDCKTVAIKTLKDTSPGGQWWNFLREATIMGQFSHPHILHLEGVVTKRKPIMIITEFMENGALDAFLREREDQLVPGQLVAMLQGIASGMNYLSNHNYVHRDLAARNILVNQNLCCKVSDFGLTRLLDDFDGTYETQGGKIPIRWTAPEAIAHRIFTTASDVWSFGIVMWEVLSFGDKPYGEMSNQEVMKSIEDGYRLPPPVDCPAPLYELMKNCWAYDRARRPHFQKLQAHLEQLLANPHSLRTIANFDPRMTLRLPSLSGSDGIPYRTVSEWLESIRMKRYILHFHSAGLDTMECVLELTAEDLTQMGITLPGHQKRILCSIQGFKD
experiment_summary: NVS_ENZ_hEphA1: NovaScreen (NVS) Enzymatic Assay for human Ephrin type-A Receptor 1 (EphA1) (AID 2283158);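 note: activity is signal loss versus DMSO meaning EphA1 kinase inhibition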
Records with an inconclusive call do not appear. Activity calls are given as the source filed them. Rule for the calls: active = hit-call score of the fitted dose curve at least 0.9, where 1 is the maximum; inconclusive = response in the unintended direction; inactive = score below 0.9.
Outcome field: choose from active, inactive

Ask: Dear all, I need the recorded test outcome for C(=NC1CCCCC1)=NC1CCCCC1 , thank you.
Reply: inactive

Ask: # outcome recorded in this test, key = Nc1cccc(Cl)c1
Reply: inactive

Ask: Please state the recorded outcome for this molecule: Nc1ccc(-c2ccc(N)c(Cl)c2)cc1Cl
Reply: active

Ask: Could you check what this test reported for COP(=S)(OC)Oc1cc(Cl)c(Cl)cc1Cl ?
Reply: inactive

Ask: So what was the verdict on NC(=S)Nc1ccccc1 in this test?
Reply: active

Ask: Recorded test call requested for COc1cc2c(cc1OC)[C@@]13CCN4CC5=CCO[C@H]6CC(=O)N2[C@H]1[C@H]6[C@H]5C[C@H]43
Reply: inactive

Ask: Which result was noted for this molecule in the test: CC(Br)C(=O)O (configuration not stated)
Reply: inactive

====

experiment_summary: ATG_DR4_LXR_CIS: Attagene CIS-FACTORIAL HepG2 Assay for human Liver X Receptor (LXR), DR4 submotif (AID 2282929)
settings: HepG2 Attagene DR4 cis-reporter, mRNA transcription; actives raise or lower the signal
Active and inactive are the calls of the source. How the source made its calls: active means hit-call score of the fitted dose curve at least 0.9, where 1 is the maximum; inactive means score below 0.9.
measurement_type: AC50

Example entries and their recorded answers appear below.
CN(CCCC(=O)c1cccnc1)N=O: inactive
CC(C)OC(=O)Nc1ccccc1: inactive
Oc1cccc2cccnc12: inactive
CCc1ccccc1C: inactive
CCC(C)c1cccc(C(C)CC)c1O (stereo unspecified): inactive
CCOC(=O)/C=C(C)/C=C/C[C@@H](C)CCCC(C)C: 53.5 µM (active)

So for Fc1ccc(C2(Cn3cncn3)OC2c2ccccc2Cl)cc1 (stereo unspecified) , the logged AC50 turned out to be inactive

Input CN(C)N=O . Output AC50: inactive

Sample COC[C@H](C)N(C(=O)CCl)c1c(C)csc1C ; AC50 observed: inactive

Lab note: measured AC50 of C=C(C)C(=O)[O][Sn]([CH2]CCC)([CH2]CCC)[CH2]CCC was inactive

Note to self: AC50 recorded for Cn1sc(Cl)cc1=O was inactive

Entry CCC(=O)c1ccccc1 , AC50 reported as inactive

The measured AC50 associated with O=[N+]([O-])c1c(Cl)c(Cl)cc(Cl)c1Cl reads inactive

O=C(NCO)NCO has a reported AC50 of inactive

// AC50 lookup, molecule = N#CCCO , result: inactive

Note to self: AC50 recorded for Oc1c(I)cc(I)cc1I was inactive
